- System: human bronchial epithelial cells, CFTR corrector, plate reader
- assay.details: rescue of ΔF508 CFTR function, airway epithelium – human bronchial epithelial cells, plate reader, cherry-pick, two tests, dose response (AID 743267)
- settings: measured here: test 2 replicate run
Criterion: AC50 strictly less than 5 µM. Met: criterion met. Not met: criterion not met.

Some solved entries appear below for comparison.
molecule="CCSc1nnc(N2C(=O)C(O)=C(C(=O)c3ccco3)C2c2cccc(OC)c2)s1 (stereo unspecified)" study_target="human bronchial epithelial cells, CFTR corrector, plate reader" class="criterion not met"
molecule=COc1ccc2[nH]c(C(=O)N/N=C/c3ccc(OC)c(O)c3)cc2c1 study_target="human bronchial epithelial cells, CFTR corrector, plate reader" class="criterion met"
molecule=CC1=NCCc2c1[nH]c1cc(O)ccc21 study_target="human bronchial epithelial cells, CFTR corrector, plate reader" class="criterion not met"
molecule=COc1cc(OC)cc(C(=O)N[C@H](C(=O)Nc2nc3ccccc3[nH]2)C(C)C)c1 study_target="human bronchial epithelial cells, CFTR corrector, plate reader" class="criterion met"

## Input Criterion: AC50 strictly below 5 µM. Is it met by Cc1nc(NCc2cccnc2)c2c3c(sc2n1)CCCC3 ?
## Output criterion not met

###

- Tested on: human bronchial epithelial cells, CFTR corrector, plate reader
- assay.details: rescue of ΔF508 CFTR function, airway epithelium – human bronchial epithelial cells, plate reader, cherry-pick, two tests, dose response (AID 743267)
- settings: measured here: test 2 replicate run
experimental.endpoint: AC50 (µM)
Value expressed in µM; do not type the unit.

Recorded AC50, per entry:
compound=Cc1cc2nnc(SCC(=O)NCc3ccco3)n2c2ccccc12 observed_measurement=6.63
compound=O=C(CN(Cc1ccco1)Cc1ccco1)Nc1cc(S(=O)(=O)N2CCCCC2)ccc1Cl observed_measurement=17.2
compound=CC(=O)Nc1sc2c(c1-c1nc3ccccc3s1)CN(C(C)C)CC2 observed_measurement=1.43
compound=c1ccc2c(c1)C1=NCCN1c1ccccc1-2 observed_measurement=2.93
compound="COc1cccc(N2CCN(C(=O)c3ccc(CS(=O)c4ccc(Cl)cc4)o3)CC2)c1 (stereo unspecified)" observed_measurement=1.48

## Input Provide only the value of recorded AC50 for CCCCNC(=O)C(=O)Nc1ccc2c(c1)N(S(=O)(=O)c1cccs1)CCC2
## Output 1.89

## Input Provide only the value of recorded AC50 for COCCCN=C1NN=C(c2cc(C)n(Cc3ccccc3Cl)c2C)CS1
## Output 3.3

###

# maps each entry to its log10 AC50
- Tested on: human bronchial epithelial cells, CFTR corrector, plate reader
- assay.details: rescue of ΔF508 CFTR function, airway epithelium – human bronchial epithelial cells, plate reader, cherry-pick, two tests, dose response (AID 743267)
- settings: measured here: test 2 replicate run
Hello, just confirming the data are log10 of AC50 with units of µM.

Recorded log10 AC50, per entry:
compound=COc1ccc2[nH]c(C(=O)N/N=C/c3ccc(O)cc3O)cc2c1 study_target="human bronchial epithelial cells, CFTR corrector, plate reader" experimental_endpoint="log10 AC50" observed_measurement=0.68
compound=CCOC(=O)c1ccc(-c2c(-c3cc(OC)c(OC)c(OC)c3)noc2C)cc1F study_target="human bronchial epithelial cells, CFTR corrector, plate reader" experimental_endpoint="log10 AC50" observed_measurement=0.08
compound="COc1cccc2c1C(=O)c1c(O)c3c(c(O)c1C2=O)CC(O)(C(=O)CO)CC3OC1CC(N(C)C)C(O)C(C)O1 (configuration not stated)" study_target="human bronchial epithelial cells, CFTR corrector, plate reader" experimental_endpoint="log10 AC50" observed_measurement=1.00
compound=N#Cc1ccc(-c2cccs2)nc1SCc1cccnc1 study_target="human bronchial epithelial cells, CFTR corrector, plate reader" experimental_endpoint="log10 AC50" observed_measurement=-0.28
compound="COc1ccccc1N=C1SC(C(=O)Nc2cccc(Cl)c2Cl)C(N)=C1C(N)=O (configuration not stated)" study_target="human bronchial epithelial cells, CFTR corrector, plate reader" experimental_endpoint="log10 AC50" observed_measurement=0.78
compound=CC(C)n1cc(/C=C/c2cc[n+](C)cc2)c2ccccc21 study_target="human bronchial epithelial cells, CFTR corrector, plate reader" experimental_endpoint="log10 AC50" observed_measurement=1.43
compound=COc1ccc2sc3cccc(NCCN(C)C)c3c(=O)c2c1 study_target="human bronchial epithelial cells, CFTR corrector, plate reader" experimental_endpoint="log10 AC50" observed_measurement=0.93
compound=O=C1c2cccc3c(O)ccc(c23)C(=O)N1c1ccc(Cl)cc1 study_target="human bronchial epithelial cells, CFTR corrector, plate reader" experimental_endpoint="log10 AC50" observed_measurement=1.23
compound="Cc1ccc(/C=N/NC(=O)C2COc3ccccc3O2)s1 (configuration not stated)" study_target="human bronchial epithelial cells, CFTR corrector, plate reader" experimental_endpoint="log10 AC50" observed_measurement=0.86
compound=Nc1ccn([C@@H]2O[C@H](CO)[C@@H](O)[C@@H]2O)c(=O)n1 study_target="human bronchial epithelial cells, CFTR corrector, plate reader" experimental_endpoint="log10 AC50" observed_measurement=-0.27

## Input Provide only the value of recorded log10 AC50 for COc1cccc(/C=N/NC(=O)C(=O)Nc2ccccc2OC(F)(F)C(F)F)c1O
## Output 0.97

## Input Provide only the value of recorded log10 AC50 for C#C[C@]1(O)CC[C@H]2[C@@H]3CCc4cc(OC)ccc4[C@H]3CC[C@@]21C
## Output 0.39

## Input Provide only the value of recorded log10 AC50 for COc1cc(SC)ccc1C(=O)N1CCN(c2ccccc2OC)CC1
## Output 0.82

## Input Provide only the value of recorded log10 AC50 for O=C(OCc1ccc(Br)cc1)c1cc([N+](=O)[O-])ccc1N1CCOCC1
## Output -0.18

## Input Provide only the value of recorded log10 AC50 for COc1cccc(Sc2ccccc2/C=N/NC(N)=O)c1
## Output 1.62

###

- System: human bronchial epithelial cells, CFTR corrector, plate reader
- assay.details: rescue of ΔF508 CFTR function, airway epithelium – human bronchial epithelial cells, plate reader, cherry-pick, two tests, dose response (AID 743267)
- settings: measured here: test 2 replicate run
Group membership follows AC50 per the scheme label 0: < 2 µM; label 1: ≥ 2 µM and < 7 µM; label 2: ≥ 7 µM

compound=O=C(NCCCN1CCOCC1)c1sc2cc(Cl)ccc2c1Cl class="label 0"
compound="O=S1(=O)CCN(C(CO)c2ccccc2)CC1 (stereo unspecified)" class="label 2"
compound="Cc1ccc(-c2cccc(CN3CCN(C(C)C)C(CCO)C3)c2)o1 (stereo unspecified)" class="label 2"
compound=Cn1cccc1/C=C1\SC(=Nc2ccccc2)NC1=O class="label 1"
compound=COc1ccc(/C=C2/CCCc3ccccc3C2=O)cc1 class="label 0"
compound=Cc1cc2oc(C(=O)NCCc3ccc(S(N)(=O)=O)cc3)c(C)c2cc1C class="label 0"
compound=COc1cc(NC(=O)N2CCNC2=O)cc(C(=O)Nc2cccc(C(F)(F)F)c2)c1 class="label 1"
compound="O=C(c1cccc(S(=O)(=O)N2CCN(c3ccc(F)cc3)CC2)c1)N1CCCC(C(F)(F)F)C1 (stereo unspecified)" class="label 2"
compound=Nc1ccc2ccc3cccc[n+]3c2c1 class="label 2"
compound=Cc1cc(Nc2ccc(Br)cc2)nc2ccccc12 class="label 2"

## Input Would you mind sorting COc1ccc(-c2nc(-c3cccc(C)c3)no2)cc1OC into the appropriate category?
## Output label 2

## Input Would you mind sorting COc1ccccc1N1CCN(C(=O)c2ccc(-c3ccc(Cl)cc3)o2)CC1 into the appropriate category?
## Output label 1

## Input Would you mind sorting CCc1cc(-c2nnn(CCC3COCCO3)c2CC)ccc1-c1cn(Cc2ccc3ccccc3c2)nn1 (stereo unspecified) into the appropriate category?
## Output label 0

## Input Would you mind sorting CCN(CC(=O)Nc1c(F)cccc1F)C(=O)C1CC1 into the appropriate category?
## Output label 2

## Input Would you mind sorting CC(=O)O[C@H]1C(=O)[C@@]2(C)C([C@H](OC(=O)c3ccccc3)[C@]3(O)C[C@H](OC(=O)[C@H](O)[C@@H](NC(=O)c4ccccc4)c4ccccc4)C(C)=C1C3(C)C)[C@]1(OC(C)=O)CO[C@@H]1C[C@H]2O (stereo partly specified) into the appropriate category?
## Output label 1

## Input Would you mind sorting COc1ccccc1C(=O)Nc1ccc2c(c1)nc(CCNC(=O)c1ccco1)n2C into the appropriate category?
## Output label 1

## Input Would you mind sorting Cc1ccc(C)c(C2NC(=O)c3ccccc3N2)c1 (stereo unspecified) into the appropriate category?
## Output label 1

## Input Would you mind sorting CCN(CC)c1ccc(/C=N/NC(=O)c2ccco2)c(O)c1 into the appropriate category?
## Output label 1

## Input Would you mind sorting CN[C@H]1CCc2cc(OC)c(OC)c(OC)c2-c2ccc(N(C)CC(OC)OC)c(=O)cc21 into the appropriate category?
## Output label 1

## Input Would you mind sorting CN(Cc1ccco1)c1ncnc2ccc(-c3ccc4c(ccn4C)c3)cc12 into the appropriate category?
## Output label 0
